target: Substance-P receptor (Homo sapiens); type: cell membranes, Membrane; settings: cho; note: in other assays of this panel Not Active means under 50% inhibition at 10 µM
Sequence (P25103 whole entry): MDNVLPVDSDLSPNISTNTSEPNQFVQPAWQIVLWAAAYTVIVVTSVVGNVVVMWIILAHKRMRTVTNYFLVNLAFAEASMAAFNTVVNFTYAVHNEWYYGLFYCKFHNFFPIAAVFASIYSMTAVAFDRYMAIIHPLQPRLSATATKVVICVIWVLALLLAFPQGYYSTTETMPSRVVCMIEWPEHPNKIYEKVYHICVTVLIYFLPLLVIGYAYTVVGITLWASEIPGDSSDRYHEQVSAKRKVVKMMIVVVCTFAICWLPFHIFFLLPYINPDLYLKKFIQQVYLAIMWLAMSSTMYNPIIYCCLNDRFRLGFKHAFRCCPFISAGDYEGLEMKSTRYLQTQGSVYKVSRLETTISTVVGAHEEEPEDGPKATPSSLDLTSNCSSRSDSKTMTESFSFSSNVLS
reported_endpoint: IC50

{"compound": "OC[C@H]1O[C@@H]2O[C@H]3[C@H](O)[C@@H](O)[C@@H](O[C@H]4[C@H](O)[C@@H](O)[C@@H](O[C@H]5[C@H](O)[C@@H](O)[C@@H](O[C@H]6[C@H](O)[C@@H](O)[C@@H](O[C@H]7[C@H](O)[C@@H](O)[C@@H](O[C@H]8[C@H](O)[C@@H](O)[C@@H](O[C@H]1[C@H](O)[C@H]2O)O[C@@H]8CO)O[C@@H]7CO)O[C@@H]6CO)O[C@@H]5CO)O[C@@H]4CO)O[C@@H]3CO [BETADEX]", "result": "Not Active"}
{"compound": "CC(C)(C#N)c1cc(Cn2cncn2)cc(C(C)(C)C#N)c1 [ANASTROZOLE]", "result": "Not Active"}
